These entries and their values trace back to ChEMBL document CHEMBL4813985.

- assay text: Hemolytic activity in rabbit RBC assessed as hemolysis ratio at 16 ug/ml measured after 3 hrs by microplate reader assay relative to control
- Format: ADME, cell-based, Oryctolagus cuniculus, Erythrocyte
- particulars: rabbit red blood cells (erythrocytes), at 16 µg/mL, read-out: Activity
Provide the reported hemolysis at 3 h, 16 ug/ml of each item.
Return type: number; implicit unit %.

Entry Fc1cccc([Se]C(Cn2ccnc2)c2ccc(Cl)cc2Cl)c1 (stereo unspecified) ; hemolysis at 3 h, 16 ug/ml = 100

Entry Cc1ccc(C)c([Se]C(Cn2ccnc2)c2ccc(Cl)cc2Cl)c1 (stereo unspecified) — recorded hemolysis at 3 h, 16 ug/ml = 100

get_value(item= Fc1ccc([Se]C(Cn2ccnc2)c2ccc(F)cc2F)cc1 (stereo unspecified) , readout=hemolysis at 3 h, 16 ug/ml) returns 100

Record Clc1ccc(C(Cn2ccnc2)[Se]Cc2ccccc2Cl)c(Cl)c1 (stereo unspecified) . Reported hemolysis at 3 h, 16 ug/ml: 98.2

The compound identified as CCc1ccccc1[Se]C(Cn1ccnc1)c1ccc(F)cc1F (stereo unspecified) registered its hemolysis at 3 h, 16 ug/ml at 100

For reference, reported hemolysis at 3 h, 16 ug/ml for Clc1ccc(COC(Cn2ccnc2)c2ccc(Cl)cc2Cl)c(Cl)c1 (stereo unspecified) [MICONAZOLE] stands at 94

====

- Tested on: Cryptococcus neoformans
- assay text: Antifungal activity against Cryptococcus neoformans CMGCC2.3161 measured after 72 hrs by broth microdilution assay
- Format: functional
Output Y for records whose MIC is lower than 0.5 µg/mL, N for records at or above 0.5 µg/mL.

Query: For this compound, is MIC lower than 0.5 µg/mL? COc1ccc(C[Se]C(Cn2cncn2)c2ccc(Cl)cc2Cl)cc1 (stereo unspecified)
Response: N

Query: Bench note: check whether Cc1ccc(C)c([Se]C(Cn2ccnc2)c2ccc(F)cc2F)c1 (stereo unspecified) shows MIC below 0.5 µg/mL
Response: Y

Query: hey, is MIC for Clc1ccc(C(Cn2cncn2)[Se]Cc2ccccc2)c(Cl)c1 (stereo unspecified) lower than 0.5 µg/mL or not?
Response: N

Query: # strict comparison: is reported MIC < 0.5 µg/mL? input = COc1ccc(C[Se]C(Cn2cncn2)c2ccc(F)cc2F)cc1 (stereo unspecified)
Response: N

Query: Please check: MIC for Fc1ccc([Se]C(Cn2ccnc2)c2ccc(Cl)cc2Cl)cc1 (stereo unspecified) , strictly under 0.5 µg/mL or not?
Response: Y

====

- assay text: Metabolic stability in mouse liver microsomes assessed as clearance
- Assay type: ADME, Microsome
- particulars: read-out: CLH
Kindly supply the reported CLint scaled values for the records listed here.
Provide only the numeric value, understood in mL/min/kg.

CLint scaled reported for this compound Fc1ccc([Se]C(Cn2ccnc2)c2ccc(F)cc2F)cc1 (stereo not given) : 282

Just so you know, measured CLint scaled for Clc1ccc(C(Cn2ccnc2)[Se]Cc2ccccc2Cl)c(Cl)c1 (stereo not given) came out at 1310

Lab book: CLint scaled of CCc1ccccc1[Se]C(Cn1ccnc1)c1ccc(F)cc1F (stereo not given) noted as 368

The reported value for Fc1cccc([Se]C(Cn2ccnc2)c2ccc(Cl)cc2Cl)c1 (stereo not given) in terms of CLint scaled is 531

Per the records, this compound ( Clc1ccc(COC(Cn2ccnc2)c2ccc(Cl)cc2Cl)c(Cl)c1 (stereo not given) ) has CLint scaled equal to 660

====

Would you mind telling me the reported MIC of each entry?
- Test system: Candida albicans
- assay text: Antifungal activity against fluconazole-resistant Candida albicans 632 assessed as inhibition of microbial growth after 24 hrs by broth microdilution method
- Format: functional
Give the value in µg/mL but do not write µg/mL after it.

Per the record, Fc1ccc([Se]C(Cn2ccnc2)c2ccc(F)cc2F)cc1 (stereo unspecified) has MIC of 0.5

MIC reading for Fc1cccc([Se]C(Cn2ccnc2)c2ccc(Cl)cc2Cl)c1 (stereo unspecified) : 0.5

Lab note: measured MIC of Cc1ccc(C)c([Se]C(Cn2ccnc2)c2ccc(Cl)cc2Cl)c1 (stereo unspecified) was 0.5

Kindly note the recorded MIC for Cc1ccccc1[Se]C(Cn1ccnc1)c1ccc(Cl)cc1Cl (stereo unspecified) , which is 0.5

Query Clc1ccc(C(Cn2ccnc2)[Se]Cc2ccccc2Cl)c(Cl)c1 (stereo unspecified) yields MIC of 1

Just so you know, measured MIC for Cc1ccc([Se]C(Cn2ccnc2)c2ccc(F)cc2F)cc1 (stereo unspecified) came out at 1

// sample CCc1ccccc1[Se]C(Cn1ccnc1)c1ccc(Cl)cc1Cl (stereo unspecified) , its MIC was 16

====

- Test system: Candida albicans
- assay text: Antifungal activity against fluconazole-resistant Candida albicans 901 assessed as inhibition of microbial growth after 24 hrs by broth microdilution method
- Format: functional
Threshold 4 µg/mL. MIC below it: yes. MIC at it or above: no.

Query: For this molecule, is MIC lower than 4 µg/mL? Cc1cccc([Se]C(Cn2ccnc2)c2ccc(Cl)cc2Cl)c1 (stereo unspecified)
Response: yes

Query: is_below(MIC, 4 µg/mL) for Fc1ccc(C(Cn2cncn2)[Se]Cc2ccccc2)c(F)c1 (stereo unspecified) ?
Response: no

Query: Determine whether this molecule shows MIC lower than 4 µg/mL (ties excluded): Fc1ccc([Se]C(Cn2ccnc2)c2ccc(F)cc2F)cc1 (stereo unspecified)
Response: yes

Query: Please state whether MIC is below 4 µg/mL for Cc1ccc(C)c([Se]C(Cn2ccnc2)c2ccc(Cl)cc2Cl)c1 (stereo unspecified)
Response: yes

Query: hey, is MIC for Clc1ccc(C(Cn2cncn2)[Se]Cc2ccccc2Cl)c(Cl)c1 (stereo unspecified) lower than 4 µg/mL or not?
Response: no

Query: For this molecule, is MIC lower than 4 µg/mL? Clc1ccc(C[Se]C(Cn2cncn2)c2ccc(Cl)cc2Cl)cc1 (stereo unspecified)
Response: no

Query: Below 4 µg/mL on MIC? Entry OC(Cn1cncn1)(Cn1cncn1)c1ccc(F)cc1F
Response: no

Query: Report whether reported MIC is lower than 4 µg/mL (strictly) for Cc1ccccc1[Se]C(Cn1ccnc1)c1ccc(Cl)cc1Cl (stereo unspecified)
Response: yes

====

Provide the reported pIC50 of each item.
- Tested on: MDA-MB-231
- assay text: Cytotoxicity against human MDA-MB-231 cells assessed as reduction in cell viability incubated for 96 hrs by MTT assay
- particulars: MDA-MB-231, 96 h
To interpret pIC50, take it as minus log10 of a concentration measured in moles per litre.

Documented pIC50 of CCc1ccccc1[Se]C(Cn1ccnc1)c1ccc(F)cc1F (configuration not stated) : 4.58

Record Clc1ccc(C(Cn2ccnc2)[Se]Cc2ccccc2Cl)c(Cl)c1 (configuration not stated) . Reported pIC50: 5.04

pIC50 measured on Clc1ccc(COC(Cn2ccnc2)c2ccc(Cl)cc2Cl)c(Cl)c1 (configuration not stated) [MICONAZOLE] = 4.77

So, Cc1ccc(C)c([Se]C(Cn2ccnc2)c2ccc(Cl)cc2Cl)c1 (configuration not stated) ? Its pIC50 was 5.18

Quick note, pIC50 for Fc1ccc([Se]C(Cn2ccnc2)c2ccc(F)cc2F)cc1 (configuration not stated) landed at 4.40

Record Fc1cccc([Se]C(Cn2ccnc2)c2ccc(Cl)cc2Cl)c1 (configuration not stated) , field pIC50: 4.87

====

- Tested on: Cryptococcus neoformans
- assay text: Antifungal activity against Cryptococcus neoformans CMGCC2.3161 measured after 72 hrs by broth microdilution assay
- Assay type: functional
reported metric: MIC (µg/mL)
Write it as a number; the unit µg/mL goes unstated.

Briefly, MIC measured for Cc1ccc(C[Se]C(Cn2cncn2)c2ccc(Cl)cc2Cl)cc1 (stereo unspecified) : 32

MIC in this record for Cc1cccc([Se]C(Cn2ccnc2)c2ccc(Cl)cc2Cl)c1 (stereo unspecified) : 0.25

Entry under test: COc1ccc([Se]C(Cn2ccnc2)c2ccc(Cl)cc2Cl)cc1 (stereo unspecified) . Its MIC was 0.25

Memo: Fc1ccc(C(Cn2cncn2)[Se]Cc2ccccc2)c(F)c1 (stereo unspecified) , reported MIC: 4

Noted for COc1cccc([Se]C(Cn2ccnc2)c2ccc(Cl)cc2Cl)c1 (stereo unspecified) : its MIC reads 0.25

Record Fc1ccc([Se]C(Cn2ccnc2)c2ccc(F)cc2F)cc1 (stereo unspecified) . Reported MIC: 0.5

Recorded MIC (compound Cc1cccc([Se]C(Cn2ccnc2)c2ccc(F)cc2F)c1 (stereo unspecified) ): 0.25

Memo: CCc1ccc([Se]C(Cn2ccnc2)c2ccc(Cl)cc2Cl)cc1 (stereo unspecified) , reported MIC: 0.5

In plain terms, Fc1cccc([Se]C(Cn2ccnc2)c2ccc(F)cc2F)c1 (stereo unspecified) has a documented MIC of 0.5

Entry under test: Cc1cccc(C)c1[Se]C(Cn1ccnc1)c1ccc(F)cc1F (stereo unspecified) . Its MIC was 0.25

// MIC value for Clc1ccc(C(Cn2ccnc2)[Se]Cc2ccccc2Cl)c(Cl)c1 (stereo unspecified) : 0.25

====

- assay text: Hemolytic activity in rabbit RBC assessed as hemolysis ratio at 8 ug/ml measured after 3 hrs by microplate reader assay relative to control
- Format: ADME, cell-based, Oryctolagus cuniculus, Erythrocyte
- particulars: rabbit red blood cells (erythrocytes), at 8 µg/mL, read-out: Activity
Label Y for high-side hemolysis at 3 h, 8 ug/ml (at or above 90%) and N for low-side hemolysis at 3 h, 8 ug/ml (below it).

Query: I'd appreciate it if you could say whether Fc1cccc([Se]C(Cn2ccnc2)c2ccc(Cl)cc2Cl)c1 (stereo unspecified) has hemolysis at 3 h, 8 ug/ml at least equal to 90%.
Response: Y

Query: Does the compound Clc1ccc(COC(Cn2ccnc2)c2ccc(Cl)cc2Cl)c(Cl)c1 (stereo unspecified) [MICONAZOLE] have recorded hemolysis at 3 h, 8 ug/ml that is 90% or more?
Response: N

Query: Decide: is the reported value of hemolysis at 3 h, 8 ug/ml for Clc1ccc(C(Cn2ccnc2)[Se]Cc2ccccc2Cl)c(Cl)c1 (stereo unspecified) equal to or greater than 90%?
Response: Y

Query: Confirm if hemolysis at 3 h, 8 ug/ml reported for the compound CCc1ccccc1[Se]C(Cn1ccnc1)c1ccc(F)cc1F (stereo unspecified) is 90% or above.
Response: Y

Query: Can Fc1ccc([Se]C(Cn2ccnc2)c2ccc(F)cc2F)cc1 (stereo unspecified) be said to have hemolysis at 3 h, 8 ug/ml at or above 90%?
Response: N

Query: Test whether the compound Cc1ccc(C)c([Se]C(Cn2ccnc2)c2ccc(Cl)cc2Cl)c1 (stereo unspecified) records hemolysis at 3 h, 8 ug/ml of 90% or higher.
Response: Y
